- SUBJECT OF TEST: Progesterone receptor (Homo sapiens)
- Sequence (P06401 whole entry): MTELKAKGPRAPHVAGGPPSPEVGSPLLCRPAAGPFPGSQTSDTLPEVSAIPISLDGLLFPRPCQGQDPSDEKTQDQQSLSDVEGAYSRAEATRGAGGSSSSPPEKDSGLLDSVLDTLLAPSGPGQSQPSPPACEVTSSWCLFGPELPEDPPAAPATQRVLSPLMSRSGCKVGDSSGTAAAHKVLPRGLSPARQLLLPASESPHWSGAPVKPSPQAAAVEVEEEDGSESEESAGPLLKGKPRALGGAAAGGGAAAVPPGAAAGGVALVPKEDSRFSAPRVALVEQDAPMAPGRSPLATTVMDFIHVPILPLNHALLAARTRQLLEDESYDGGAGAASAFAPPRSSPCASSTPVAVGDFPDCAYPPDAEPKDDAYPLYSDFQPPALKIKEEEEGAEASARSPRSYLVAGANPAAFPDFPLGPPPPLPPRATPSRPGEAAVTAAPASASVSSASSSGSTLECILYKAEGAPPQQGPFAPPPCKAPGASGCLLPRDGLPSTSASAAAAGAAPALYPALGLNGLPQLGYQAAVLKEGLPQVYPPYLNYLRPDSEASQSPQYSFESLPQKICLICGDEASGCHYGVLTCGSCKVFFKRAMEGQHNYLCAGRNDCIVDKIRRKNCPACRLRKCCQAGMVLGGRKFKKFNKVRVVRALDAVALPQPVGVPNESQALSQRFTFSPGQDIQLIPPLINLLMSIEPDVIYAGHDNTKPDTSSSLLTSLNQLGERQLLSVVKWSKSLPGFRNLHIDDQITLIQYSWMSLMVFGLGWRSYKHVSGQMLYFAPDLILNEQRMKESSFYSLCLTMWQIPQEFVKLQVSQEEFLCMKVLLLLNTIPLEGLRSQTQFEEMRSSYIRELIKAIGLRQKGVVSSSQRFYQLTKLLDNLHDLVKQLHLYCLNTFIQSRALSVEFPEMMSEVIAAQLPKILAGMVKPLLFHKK
- PROTOCOL SUMMARY: Antagonist activity at human PRB expressed in CHO cells assessed as inhibition of Org 2058 induced-transactivation relative to Org 31710
- Type: functional, cell-based

COMPOUND | IC50 [nM]
C=C1CCO[C@]12CC[C@H]1[C@@H]3CCC4=CC(=O)CCC4[C@H]3[C@@H](c3ccc(N(C)C)cc3)C[C@@]12C (some centres not stated) | 0.2
CN(C)c1ccc([C@H]2C[C@@]3(C)[C@@H](CC[C@@]34CCCC4=O)[C@@H]3CCC4=CC(=O)CCC4=C32)cc1 | 0.2
